This collection of values is drawn from PubChem BioAssay (NCI).

Hi there, I'd appreciate the recorded growth for every entry that follows.
system: A549/ATCC NSCLC; assay: NCI-60 one-dose screen, 48 h (100 = growth as untreated, 0 = no growth, -100 = all killed); conditions: 10 µM unless noted
About 83,000 compounds went through this panel and 20% of them were active in at least one assay; those are over-represented in the sample as a whole.
Answers are plain numbers, in %.

Example entries begin here.
Tell me the measured growth of Cc1ccc(-n2nc(C(C)(C)C)cc2NC(=O)NCc2cc(F)ccc2Oc2ccc3c(cnn3CCO)c2)cc1 , please.
19.4

Again, but for CS(=O)(=O)CCNCc1ccc(-c2ccc3ncnc(Nc4ccc(OCc5cccc(F)c5)c(Cl)c4)c3c2)o1
-39.4

Again, but for COc1ccc(Cl)c(Nc2nc3ccccc3nc2NS(=O)(=O)c2cccc(NC(=O)C(C)(C)N)c2)c1
32.4

Again, but for Cn1ccnc1C(=O)/C=C/c1ccc(CC(=O)Nc2ccc(C(F)(F)F)cc2)cc1
6.44

Again, but for CCN(CC)Cc1cc(Nc2cc(C(F)(F)F)c(C#N)c3nc4ccccc4n23)ccc1O
6.97

Could I get growth for every one of these entries?
1. N[C@@H]1CCCN(c2c(/C=C3\SC(=O)NC3=O)cccc2-c2ccccc2)C1
2. CN1CCN(c2nc(NCCNc3ccnc4cc(Cl)ccc34)c3ccccc3n2)CC1
3. Cc1[nH]n(C(N)=S)c(=O)c1N=Nc1ccc(S(=O)(=O)Nc2ccncn2)cc1
4. CC(C)CC(=O)Nc1n[nH]c2c1CN(C(=O)C1CCN(C)CC1)C2(C)C

1. 52.6
2. 1.62
3. 101
4. 7.25

====

tested on: CAKI-1 renal; assay: NCI-60 one-dose screen, 48 h (100 = growth as untreated, 0 = no growth, -100 = all killed); details: 10 µM unless noted
The panel holds about 83,000 compounds, 20% with a hit somewhere; the sample as a whole holds those more often.
measurement_name: growth (%)
Numbers only, in %.

Example entries begin here.
Lab note: need growth with CAKI-1 renal for entry C=C1C[C@H](O)[C@H](Br)C(C)(C)[C@@]12CCC(C)=C(Cl)C2 , please look it up.
16.3

Again, but for NC1=Nc2cc(OCCCN3Cc4ccccc4C3)c(OCC3CC3)cc2C12CCCC2
49.9

Again, but for Cn1cnc(-c2cc3nccc(Oc4ccc(NC(=S)NC(=O)Cc5ccccc5)cc4F)c3s2)c1
80.8

Again, but for Cc1cc(NCC(=O)Nc2ccc(-c3nc4ccccc4s3)cc2)no1
104

Again, but for O=C(O)c1ccc(Nc2ncc3c(n2)-c2ccc(Cl)cc2C(c2c(F)cccc2F)=NC3)cc1
47.6

Again, but for C=C1C(=O)O[C@H]2[C@H]1CC/C(CNC(=O)c1cc3cc(OC)ccc3[nH]1)=C\CC[C@@]1(C)O[C@@H]21
-74.1

Again, but for CCOC(=O)c1sc(NC(=O)COc2ccc(/C=C3\Cc4ccc(Cl)cc4C3=O)cc2)nc1C
96.1

Again, but for ClCc1ccc(-c2ccc(Cn3cnc4c(Cl)nc(Cl)nc43)cc2)cc1
-98.8

Next molecule, growth to be filled in.
Lab note: need growth with CAKI-1 renal for entry Cc1cc(C(=O)Nc2cc(Oc3ccc4nc(NC(=O)C5CC5)cn4n3)ccc2C)n(C)n1 , please look it up.
23.8

====

Hi there, I'd appreciate the recorded growth for every entry that follows.
tested on: SF-268 CNS; test: NCI-60 one-dose screen, 48 h (100 = growth as untreated, 0 = no growth, -100 = all killed); details: 10 µM unless noted
The panel holds about 83,000 compounds, 20% with a hit somewhere; the sample as a whole holds those more often. Active and inactive are the calls of the source. How the source made its calls: active means growth percent below 10; inactive means the rest.

Example entries begin here.
Tell me the measured growth of CCN(CC)c1cc2oc3cc(N)cc(=N)c-3nc2cc1C , please.
64.5% (inactive)

Again, but for CCN(CC)C(=O)C[N+](C)(C)CCOC(c1ccccc1)c1ccccc1
103% (inactive)

Again, but for Cc1cc(O)cc(-c2c(-c3ccnc(-c4cccnc4)c3)cnn2C)c1
72.8% (inactive)

Again, but for Cc1nn(-c2nc3ccccc3[nH]2)c2c1C(c1ccc(OCc3ccc(F)cc3)cc1)CC(=O)N2 (stereo not given)
46.7% (inactive)

Again, but for C=C1C[C@H](O)[C@H](Br)C(C)(C)[C@@]12CCC(C)=C(Cl)C2
30.9% (inactive)

Could I get growth for every one of these entries?
1. CNC(=O)c1cc(COc2nnc(Nc3ccc(Cl)cc3)c3ccoc23)ccn1
2. C[C@@H](NC(=O)c1ncnc(N)c1Cl)c1ncc(C(=O)Nc2cc(C(F)(F)F)c(Cl)cn2)s1
3. CC[C@@H]1C(=O)N(C)c2cnc(Nc3ccc(C(=O)NC4CCN(C)CC4)cc3OC)nc2N1C1CCCC1
4. C=CC[n+]1c(/C=C/C=C2\N(C)c3ccccc3C2(C)C)sc2ccc(OC)cc21
5. COc1c(C(NC(=O)c2ccccc2)c2sccc2C)cc(Cl)c2cccnc12 (stereo not given)
6. COc1ccc(C(=O)N2c3ccccc3Sc3ccccc32)c(F)c1
7. O=C(Cn1ccnc1)Nc1ccc(-c2nc3ccccc3s2)cc1
8. Cc1c(N)ccc(-c2ccc(N)c(C)c2S(=O)(=O)O)c1S(=O)(=O)O

14.2% (inactive)
93% (inactive)
15.5% (inactive)
32.7% (inactive)
100% (inactive)
53.1% (inactive)
81.1% (inactive)
109% (inactive)

Could I get growth for every one of these entries?
1. CC(C)(C)C(=O)OCOP(=O)(OCOC(=O)C(C)(C)C)C1CCCN(OC(=O)c2ccccc2)C1=O (stereo not given)
2. Cn1cnc2c(F)c(Nc3ccc(Br)cc3F)c(C(=O)NOCCO)cc21

1. 36% (inactive)
2. 70.8% (inactive)

Could I get growth for every one of these entries?
1. Nc1ccc(S(=O)(=O)O)c2cc(S(=O)(=O)O)cc(O)c12
2. Nc1c(C(=O)c2ccccc2)sc2nc(-c3cccs3)ccc12
3. Cn1c(=O)c(F)c(Nc2ccc(I)cc2F)c2c(=O)n(C[C@@H](O)CO)cnc21
4. Cc1cn(-c2cc(NC(=O)c3ccc(C)c(Nc4nccc(-c5cccnc5)n4)c3)cc(C(F)(F)F)c2)cn1
5. CCCC(=O)OCC1OC(n2cnc3c(=S)nc[nH]c32)C(OC(=O)CCC)C1OC(=O)CCC (stereo not given)

1: 111% (inactive); 2: 45.7% (inactive); 3: 59.5% (inactive); 4: 55.8% (inactive); 5: 52.5% (inactive)

====

tested on: SK-MEL-28 melanoma; experiment: NCI-60 one-dose screen, 48 h (100 = growth as untreated, 0 = no growth, -100 = all killed); conditions: 10 µM unless noted
The panel holds about 83,000 compounds, 20% with a hit somewhere; the sample as a whole holds those more often. The source made the active and inactive calls. Rule for the calls: active = growth percent below 10; inactive = the rest.
Hi there, I'd appreciate the recorded growth for every entry that follows.

Tell me the measured growth of Cc1cc(O)c2c(c1)C1OC(=O)CCCCCN1C1=C2C(=O)c2cccc(OC3CC(O)C(O)C(C)O3)c2C1=O (centres undefined) , please.
75.8% (inactive)

Could I get growth for every one of these entries?
1. Cc1cc2c(-c3nc4ccccn4c3NC3CCCCC3)c(O)c(O)cc2c(O)c1-c1c(C)cc2c(-c3nc4ccccn4c3NC3CCCCC3)c(O)c(O)cc2c1O
2. O=C(/C=C/c1ccc2c(c1)OCO2)c1c(O)c2ccccc2oc1=O
3. Cn1cnc(-c2cc3nccc(Oc4ccc(NC(=S)NC(=O)Cc5ccccc5)cc4F)c3s2)c1

38.9% (inactive)
112% (inactive)
98.3% (inactive)

====

tested on: SK-MEL-28 melanoma; experiment: NCI-60 one-dose screen, 48 h (100 = growth as untreated, 0 = no growth, -100 = all killed); details: 10 µM unless noted
This is part of a sample that, as a whole, favours compounds with a hit. Of some 83,000 tested, about 20% had one in any assay.
Lab note: anything with growth at or over 40% counts as class 1; the rest go in class 0.

Consider the following illustrative entries.
Does the reported growth for CO[C@@H](C)Cn1c(=O)n(C)c2cnc3ccc(-c4cncc(C(C)(C)O)c4)cc3c21 fall at or above the 40% mark?
class 0

Again, but for CNC(=O)c1cc(Oc2ccc(NC(=O)Nc3ccc(Cl)c(C(F)(F)F)c3)c(F)c2)ccn1
class 0

Again, but for O=C(Nc1cccc([N+](=O)[O-])c1)c1ccc(Cl)c(Cl)c1
class 1

Again, but for C=CC(=O)Nc1cccc(Oc2nc(Nc3ccc(N4CCN(C)CC4)cc3)nc3ccsc23)c1
class 0

Again, but for C[C@@H]1COC(Nc2ccc3ncnc(Nc4ccc(OCc5nccs5)c(Cl)c4)c3c2)=N1
class 0

Again, but for COc1ccc(-c2cnc(-c3ccc(Cl)cc3)[nH]2)cc1OC
class 1

Next:
Does the reported growth for NC1=Nc2ccccc2N(O)N1 fall at or above the 40% mark?
class 1

Again, but for COc1cc(N2CCC(N(C)C)CC2)ccc1Nc1ncc(Cl)c(Nc2ccccc2P(C)(C)=O)n1
class 1

Again, but for O=C(NO)c1ccc(Cn2c(=O)n(CCc3ccccc3)c(=O)c3ccccc32)cc1
class 0
